Data provenance: the supplement of paper PMC9170038

Tested on: MS2 coat protein
RUN DESCRIPTION: apparent KD of MS2 coat protein, switch ON state; designed switch direction (-1 OFF switch, 1 ON switch): 1; higher = weaker reporter binding
MEASUREMENT CONDITIONS: FMN input: 0 or 200 uM; Eterna round: R93 (includes R88 designs)
Answer not fulfilled if apparent KD of MS2 coat protein is under 20 nM, and fulfilled if it is 20 nM or more.

Worked examples follow.
AAAAAACAUGAGGAUCACCCAUGUCAAAAGACGUGAGGAUAUGUACAGACUUCGGUCUGUACAGAAGGCACGAAAA [SS1 - 1037]    not fulfilled
AAGAAAGUUUACGAGGAUAUGUUCCGCAUAACAUGAGGAUCACCCAUGUGAACAAGAAAGGCGACGCAGAAGGCGUGAGCAAAGA [Atanansori]    fulfilled
CGUGAACAUGAGGAUCACCCAUGUGAAAAACAUAGAGGAUAUGUCACAUGAGUGUAAAAGACAGAAGGCUAUCGUG [Mod 1 of Round 1 starryjess' Mod pf Nando]    fulfilled
AAGAGACAUGAGGAUCACCCAUGUAGGAUUAUGGGAGGAUAUACAAAGACGAGAGUCAGAGUAGAAGGCCUAGGAA [salish99-ss1-129(!)]    fulfilled
GGGAGACAUGAGGAUCACCCAUGUGAGAAGAGGCGAGGAUAUCGAAAAAAAAAAAAAAAACGAGAAGGCGCGAGAA [salish99-SS1-003]    fulfilled
CGAAGACAUGAGGAUCACCCAUGUGGGAAUAUGGGAGGAUAUACAAAGACGAGAGUCAGAGUAGAAGGCCUAGGAU [salish99-ss1-105]    fulfilled

Then this sequence:
Given the entry AAAAAAAAAAGACAGGAUAUCCAAAAAAAAACAUGAGGAUCACCCAUGUAAAAAAAAAAAAAAUGGGAGAAGGGUCAAAAAAAAAA [Louisiana 5 - Jieux - Same State 2] , answer whether its apparent KD of MS2 coat protein meets or surpasses 20 nM.
fulfilled

---

Tested on: MS2 coat protein
RUN DESCRIPTION: apparent KD of MS2 coat protein; higher = weaker reporter binding
MEASUREMENT CONDITIONS: Eterna round: R107; input ligand: none
Form field: apparent KD of MS2 coat protein (one value per entry).
Include the unit right after the number.

AUGCCUAGUGGAAGGAGCGAGGGUCUUCCCAACAUGAGGAUCACCCAUGUUCUUUUACACCCUCAGGUAGGUCGCCAUUGGGACA [Tilexete]    64.6 nM
AAUUCCUCACAUGAGGAUCACCCAUGUGAAGGAGCGCCGAAUAAGGCAGGUAGGUCGCACAUGGAAACCUCUACGAAAGUAGUAA [XArg-A 3 NuV1V2]    15.8 nM
AACAUACAAUAAAAGGUGGAAAUAAGGCGGCGAGGACCGGUACGGCCGCCACUCGCGUACAUGAGGAUCACCCAUGUCUGAAACU [Same State - Tryptophan A (Freestyle 2)]    22.8 nM
CGUCGAGACUGAAGGAGCGAGAUAACAACAUUGGGUCUCAACAUGAGGAUCACCCAUGUAUCUCAGGUAGGUCGCGGUGUCACCG [Exclusion Arginine B GF20]    330 nM

Field request: apparent KD of MS2 coat protein | item: ACAUUUAACUGAAGGAGCGUGAUAUUUACAUGAGGAUCACCCAUGUCUUUCAUGAUAUAUUCACAGGUAGGUCGCAGACUAAUGA [JR_ExcArginiB_Sub006]
125 nM

Field request: apparent KD of MS2 coat protein | item: UCACAUGAGGAUCACCCAUGUACAACUGAAGGAGCGAGACAAAACUCAGGUAGGUCGCAGAAUAAACAAUAGCAUACGACAUGGG [Exclusion Arginine A GF 19]
31 nM

Field request: apparent KD of MS2 coat protein | item: GUACGAGUUGACUGUGAGACUGGCGUGGAAGGAGCGCACGGAGGUGCAGGUAGGUCGCCACAUGAGGAUCACCCAUGUCGGGCCG [Qutigeveat]
26.4 nM

Field request: apparent KD of MS2 coat protein | item: "AAGGAAAAGGCGGCCGCCACUGGAAAGGCGAAAGCCAAGAAAACAUGAGGAUCACCCAUGUCAUGUAGGACCGGGCCAAAAGGAA"
21.9 nM

Field request: apparent KD of MS2 coat protein | item: CGUCGAAACUGAAGGAGCGAGAUAACAACAUUGGGUCUCAACAUGAGGAUCACCCAUGUAUCUCAGGUAGGUCGCGGUGUCACCG [Exclusion Arginine B GF19]
202 nM

Field request: apparent KD of MS2 coat protein | item: GGACGAAGUUUCUUGUCCGGUCGCUGAGAAGGAGCGCGGUAAACCGCAGGUAGGUCGCUCAGAAAUACAUGAGGAUCACCCAUGU [Orsosous]
21.1 nM

Field request: apparent KD of MS2 coat protein | item: ACGAUAGCACAAGAGGAUCACCCUUGUGAUACCAGCCUGGAAACAGGCCCUUGGCAGCACACAAAUAAAUUGUAACUAUCGAAUA [TheoAX5 #MicroSwitchBubble #AlternativeMS2]
23.6 nM

Field request: apparent KD of MS2 coat protein | item: UGGUGUAGGGUAAAUAGGAUUAGUACAGAAGGAGCGCGAAUAAACGCAGGUAGGUCGCUGGAAUAACAUGAGGAUCACCCAUGUC [Same State Arginine A GF 26]
24.8 nM

Field request: apparent KD of MS2 coat protein | item: CCGUCCCUCGGAAGGAGCGGCGCAAUGUAAGGGACCUUUUAUACAUGAGGAUCACCCAUGUGCCAGGUAGGUCGCCGAGAGCGUG [Erxeatge]
77.2 nM

Field request: apparent KD of MS2 coat protein | item: GCUACGUGCUGAAGGAGCGUGGACCUAAACAUGAGGAUCACCCAUGUCGUGUAGGCAGAUUCACAGGUAGGUCGCAGCACGUAGC [SSAB NP+V+V2 #14 Same Structure]
92.2 nM

Field request: apparent KD of MS2 coat protein | item: AGCACAUGAGGAUCACCCAUGUGUGGGUACCGAGGACCGGUACGGCCGCCACUCGCAGGACAUGAGGAUCACCCAUGUGCCGCCG [SSTA DOUBLE!!! :-D #7]
30.5 nM

Field request: apparent KD of MS2 coat protein | item: "UUCAGCUAGUCGGCCGCCACUACUUGAGGAUCACCCAGGUAGGUCCACACUGCUUCGGCAGUGAGUAGGACCGGGACUAGCUGAG"
32.8 nM

---

Tested on: MS2 coat protein
RUN DESCRIPTION: apparent KD of MS2 coat protein; designed switch direction (-1 OFF switch, 1 ON switch): -1; higher = weaker reporter binding
MEASUREMENT CONDITIONS: input ligand: microRNA oligo, concentration not stated
Form field: apparent KD of MS2 coat protein (one value per entry).
# value in nM; strip the unit string

AUGUACCGGUGAGGAUAUUUUUAAUAGAGCUUUAUGAUAUACAUGAGGAUCACCCAUGUUACUUUAAAGAAGGCAUCGGAUUAA [Mat - Exclusion NG 2 - Mod of JL - D90] (Eterna round: R96, puzzle: Exclusion NG 2)    12.8
AGGAAACAUGAGGAUCACCCAUGUGAGGAUAUUUGAAAGAAAAGAAAAGAAAGAAGAAGAAGAAGGCACAAGAA [Merneith] (Eterna round: R96, puzzle: Exclusion 1)    23.8

As a next step, examine the sequence that follows.
Field request: apparent KD of MS2 coat protein | item: ACAUGUUAUGUAGGAUAUUGGACACAUGAGGAUCACCCAUGUACCCGGAGGCUUUACUAUGAGUUCGAGAAGGGUAUGUACAUG [Ex NG2 #69] (Eterna round: R96, puzzle: Exclusion NG 2)
33.7

---

Tested on: MS2 coat protein
RUN DESCRIPTION: apparent KD of MS2 coat protein; designed switch direction (-1 OFF switch, 1 ON switch): 1; higher = weaker reporter binding
MEASUREMENT CONDITIONS: Eterna round: R95; input ligand: microRNA oligo, concentration not stated
Answer false if apparent KD of MS2 coat protein is under 0.02 µM, and true if it is 0.02 µM or more.

Worked examples follow.
GGCUAUCGCGUACGAUAGCUUAGGCAUGUACAUGAGGAUCACCCAUGUCAUGUACAGGCUUUUUGCUCGUCUUAUUG [JL-shm-2.36 JL mod] (puzzle: Sensor for hsa-mir-208a)    false
CGGCGUUGUCGAGAGGAUAUGCGGUGAUGGACAUGAGGAUCACCCAUGUUAGCGAUAGCAUUACGGUAGAAGGCUCUACAGCUGC [Soteed Omei mod 7] (puzzle: Same State 2)    true
CUAUGACAUGAGGAUCACCCAUGUGAUAAUUUCAUAGGAUAUACGGCGCCGUUAAGGGCCGUAGAAGGGUGAUCGA [Veonti] (puzzle: Same State 1)    true
GGUCCAGCCUGAGCUGGACCACAGCAUGUACAUGAGGAUCACCCAUGUCAUGUACAAGCUUUUUGUUUAACUUAAAA [Sensorship 12 - Jieux - Sensor for hsa-mir-208a] (puzzle: Sensor for hsa-mir-208a)    false
UACAAUCUAUCUGAGGAUAUCAUGAAUAAAACAUGAGGAUCACCCAUGUGCAGGAUAACUGCAAAUGAGAAGGCAGAUAGAUUGU [Mat - Same State 2 - Mod - D8] (puzzle: Same State 2)    false
ACAAGCUUUUCUGUAUUGAAAGGUGGGAUACAUGAGGAUCACCCAUGUUUGUUUGUUUAUUGUUUUCCUCGUCUUAU [JR_SHM208A_Sub089] (puzzle: Sensor for hsa-mir-208a)    true
GUGCGGCUGCCACAGGAUAUACGUGGAUCGACAUGAGGAUCACCCAUGUAUAUCCUAAUAAUUGCGUAGAAGGGUGGUCAGCCAG [Iserinqu] (puzzle: Same State 2)    true
UGCUAUUGUAUAUUGGUGCAAGCUUUUUGACAUGAGGAUCACCCAUGUACUCGUCUUUAGCGCAGUCCGUAGACUGC (puzzle: Sensor for hsa-mir-208a)    false
GAAGGAUGAGCGUAGGAUAUAGGAGGAGUGACAUGAGGAUCACCCAUGUAGUAGGAGGGAGGGUACUAGAAGGACGAGGAAGAGG [JR_SS2_Sub068] (puzzle: Same State 2)    true

Then this sequence:
Given the entry AGUCCAGCCUGAGCUGGACAAAAGCAUGUACAUGAGGAUCACCCAUGUCAUGUACAAGCUUUUUGCUCAAAAUAAUA [Mat - hsa-mir-208a - Mod of JL - D33] (puzzle: Sensor for hsa-mir-208a) , answer whether its apparent KD of MS2 coat protein meets or surpasses 0.02 µM.
false
